B1: SLC6A17 (parent)
chain: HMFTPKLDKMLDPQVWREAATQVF

- Variants of: B1
- Test Summary: protein stability index of a GFP-peptide fusion (GPS, HEK-293T) (PSI 1-6); higher = more stable;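 note: lentivirally expressed fusions sorted by FACS into six bins by GFP to DsRed ratio, PSI derived from sequencing read proportions per bin multiplied by bin number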
- Test Parameters: c terminus: a fixed tail appended
# cutoff 2 applies to protein stability index; >= gives Condition met, < gives Condition not met

HYFTPKLDKMLDPQVWREAATQVF [M2Y]    Condition met

Q. Quick check: does HMFTPKLDKMWDPQVWREAATQVF [L11W] have protein stability index greater than or equal to 2?
A. Condition not met

Q. Quick check: does HMFTPKLDKMLDPHVWREAATQVF [Q14H] have protein stability index greater than or equal to 2?
A. Condition not met

Q. Quick check: does HMFTPKLDKMLDPQVWREAATWVF [Q22W] have protein stability index greater than or equal to 2?
A. Condition met

Q. Quick check: does HMWTPKLDKMLDPQVWREAATQVF [F3W] have protein stability index greater than or equal to 2?
A. Condition met

Q. Quick check: does HMFTDKLDKMLDPQVWREAATQVF [P5D] have protein stability index greater than or equal to 2?
A. Condition met

Q. Quick check: does HMFTPKLDKMLDPWVWREAATQVF [Q14W] have protein stability index greater than or equal to 2?
A. Condition not met

Q. Quick check: does HMFTPKLCKMLDPQVWREAATQVF [D8C] have protein stability index greater than or equal to 2?
A. Condition not met

Q. Quick check: does CMFTPKLDKMLDPQVWREAATQVF [H1C] have protein stability index greater than or equal to 2?
A. Condition not met

Q. Quick check: does HMFTPKLDKSLDPQVWREAATQVF [M10S] have protein stability index greater than or equal to 2?
A. Condition met
